Parameter: Fold change in RNA expression between the ON state and the OFF state. Scope: all listed entries.
system: Renilla luciferase RNA; experiment: Barcoded aptazyme variant library screen: un-cleaved Renilla luciferase RNA by barcode read counts, HEK293-T cells; assay type: cell-based; conditions: un-cleaved Renilla luciferase RNA, HEK293-T cells cultured with 1 mM theophylline (ON) over without theophylline (OFF); barcode read counts, triplicate
I only need the number, in fold, no unit after it.

Record excerpt, results attached:
INSERT INTO assay_data (molecule, result) VALUES
  ('RA027 (nucleic acid, expressed or natural sequence) DNA: GCGCGTCCTGGATTCGCGGAAACGCGTACAGTGATACCAGCATCGTCTTGATGCCCTTGGCAGCACTATCCAGCTGACGAGTCCCAAATAGGACGAAACGCGC', 2.4),
  ('RA198 (nucleic acid, expressed or natural sequence) DNA: GCGCGTCCTGAGAATACCAGCATCGTCTTGATGCCCTTGGAAGTCTGATTCGCGGAAACGCGTACATCCAGCTGACGAGTCCCAAATAGGACGAAACGCGC', 1.2),
  ('RA263 (nucleic acid, expressed or natural sequence) DNA: GCGCGTCCTGGATTCGCGGAAACGCGTACATCCAGCTGACGAGTCCCAAAAGTGATACCAGCATCGTCTTGATGCCCTTGGCAGCACTTAGGACGAAACGCGC', 1.1),
  ('RA053 (nucleic acid, expressed or natural sequence) DNA: GCGCGTCCTGGATTCGCGGAAACGCGTACATCCAGAGTGATACCAGCATCGTCTTGATGCCCTTGGCAGCACTCTGACGAGTCCCAAATAGGACGAAACGCGC', 2.0),
  ('RA038 (nucleic acid, expressed or natural sequence) DNA: GCGCGTCCTGGATTCGCGGAAACGCGTACATCAGAATACCAGCATCGTCTTGATGCCCTTGGAAGTCTCAGCTGACGAGTCCCAAATAGGACGAAACGCGC', 2.2),
  ('RA034 (nucleic acid, expressed or natural sequence) DNA: GCGCGTCCTGGATTCGCGGAAACGCGTACATCCAGCTGACGAGAGAATACCAGCATCGTCTTGATGCCCTTGGAAGTCTCGTCCCAAATAGGACGAAACGCGC', 2.3),
  ('RA120 (nucleic acid, expressed or natural sequence) DNA: GCGCGTCCCCGGAATACCAGCATCGTCTTGATGCCCTTGGAAGTCCGGTGGATTCGCGGAAACGCGTACATCCAGCTGACGAGTCCCAAATAGGACGAAACGCGC', 1.5),
  ('RA145 (nucleic acid, expressed or natural sequence) DNA: GCGCGGAATACCAGCATCGTCTTGATGCCCTTGGAAGTCCGTCCTGGATTCGCGGAAACGCGTACATCCAGCTGACGAGTCCCAAATAGGACGAAACGCGC', 1.4),
  ('RA083 (nucleic acid, expressed or natural sequence) DNA: GCGCGTCCGGAATACCAGCATCGTCTTGATGCCCTTGGAAGTCCTGGATTCGCGGAAACGCGTACATCCAGCTGACGAGTCCCAAATAGGACGAAACGCGC', 1.7),
  ('RA063 (nucleic acid, expressed or natural sequence) DNA: GCGCGTCCTGGATTCAGTGATACCAGCATCGTCTTGATGCCCTTGGCAGCACTGCGGAAACGCGTACATCCAGCTGACGAGTCCCAAATAGGACGAAACGCGC', 1.9);

# input Identify Fold change in RNA expression between the ON state and the OFF state associated with the molecule RA101 (nucleic acid, expressed or natural sequence) DNA: GCGCGTCCTGGATTCGCGGAAACGCGTACATCCAGCTGACGAGTCCCAAATAGGACGAACGGAATACCAGCATCGTCTTGATGCCCTTGGAAGTCCGACGCGC
# output 1.6

# input Tell me Fold change in RNA expression between the ON state and the OFF state reported for RA229 (nucleic acid, expressed or natural sequence) DNA: GCGCCGGAATACCAGCATCGTCTTGATGCCCTTGGAAGTCCGGCGTCCTGGATTCGCGGAAACGCGTACATCCAGCTGACGAGTCCCAAATAGGACGAAACGCGC
# output 1.1

# input Fill in reported Fold change in RNA expression between the ON state and the OFF state for this entry: RA069 (nucleic acid, expressed or natural sequence) DNA: GCGCGTCCTGGATTCGCGGAAACGCGTACATCCAGCTGACGAGTCCCGGAATACCAGCATCGTCTTGATGCCCTTGGAAGTCCAAATAGGACGAAACGCGC
# output 1.8

# input Read the entry RA242 (nucleic acid, expressed or natural sequence) DNA: GCGCGTCCTGGATTCCGGAATACCAGCATCGTCTTGATGCCCTTGGAAGTCCGGCGCGGAAACGCGTACATCCAGCTGACGAGTCCCAAATAGGACGAAACGCGC and write its reported Fold change in RNA expression between the ON state and the OFF state.
# output 1.1

Values compiled from patent US20260167959A1.
